# Tested on: Mus musculus
# ASSAY INFO: The compound was tested in vivo for duration of action after 0.2 mg/kg peroral administration to protect from U-46,619-induced(2.0 mg/kg, iv) death in mice
# Format: ADME, organism-based
# Set-up: dose 0.2 mg/kg, route oral
# CONDITION NOTES: po
METRIC: T50 (h)
The reply should contain only the number, in h.

O=C(O)CCCc1ccccc1CC1C2CCC(O2)C1/C=N/NC(=O)Nc1ccccc1 (centres undefined) ... 8.7
O=C(O)Cc1cccc(CC2C3CCC(O3)C2/C=N/NC(=O)Nc2ccccc2)c1 (centres undefined) ... 1.7
O=C(O)CCc1ccccc1CC1C2CCC(O2)C1/C=N/NC(=O)Nc1ccccc1 (centres undefined) ... 16

Problem: State T50 on Mus musculus. Entry: O=C(O)COc1ccccc1CC1C2CCC(O2)C1/C=N/NC(=O)Nc1ccccc1 (centres undefined)
Result: 3.6

###

Thromboxane A2 receptor (Homo sapiens, UniProt P21731) measurements of pKd, listed per entry.
Sequence (P21731 whole entry): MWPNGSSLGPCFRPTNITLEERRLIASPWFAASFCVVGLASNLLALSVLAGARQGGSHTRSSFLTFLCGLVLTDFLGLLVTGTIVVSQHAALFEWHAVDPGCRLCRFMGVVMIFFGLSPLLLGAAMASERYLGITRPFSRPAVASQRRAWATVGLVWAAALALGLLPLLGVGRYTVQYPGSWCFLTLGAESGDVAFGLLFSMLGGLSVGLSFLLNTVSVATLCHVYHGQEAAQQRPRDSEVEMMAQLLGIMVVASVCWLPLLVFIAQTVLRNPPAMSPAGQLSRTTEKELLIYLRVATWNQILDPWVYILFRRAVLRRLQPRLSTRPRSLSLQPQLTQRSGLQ
Hey, just a heads up that pKd is the negative log base 10 of the concentration in molar.

Study these solved cases before continuing.
O=C(O)Cc1cccc(CC2C3CCC(O3)C2/C=N/NC(=O)Nc2ccccc2)c1 (stereo unspecified) ... 6.77
O=C(O)CCC/C=C\CC1C2CCC(O2)C1/C=N/NC(=O)Nc1ccccc1 (stereo unspecified) ... 7.40
O=C(O)CCCc1ccccc1CC1C2CCC(O2)C1/C=N/NC(=O)Nc1ccccc1 (stereo unspecified) ... 7.68
O=C(O)COc1cccc(CC2C3CCC(O3)C2/C=N/NC(=O)Nc2ccccc2)c1 (stereo unspecified) ... 5.92
O=C(O)COc1ccccc1CC1C2CCC(O2)C1/C=N/NC(=O)Nc1ccccc1 (stereo unspecified) ... 8.22

We now examine a further molecule.
Problem: Find the measured pKd of O=C(O)CCc1ccccc1CC1C2CCC(O2)C1/C=N/NC(=O)Nc1ccccc1 (stereo unspecified) and report it.
Result: 9.00

###

Listing of entries alongside the reported log10 IC50.
# Organism: Homo sapiens
# ASSAY INFO: The compound was tested for inhibition of U-46,619(10 uM) induced platelet aggregation in human platelet rich plasma(PRP).
# Type: functional
# CONDITION NOTES: read-out: I50
Annotation: log10 of IC50, nM basis.

O=C(O)Cc1cccc(CC2C3CCC(O3)C2/C=N/NC(=O)Nc2ccccc2)c1 (configuration not stated) ... 3.66

Lab note: next molecule to report on.
Problem: Give recorded log10 IC50. O=C(O)COc1cccc(CC2C3CCC(O3)C2/C=N/NC(=O)Nc2ccccc2)c1 (configuration not stated)
Result: 4.40

###

# Species: Homo sapiens
# ASSAY INFO: The compound was tested for inhibition of U-46,619(10 uM) induced platelet aggregation in human platelet rich plasma(PRP).
# Assay type: functional
# CONDITION NOTES: read-out: I50
METRIC: IC50 (nM)
All answers are understood in nM, so give the number only.

Answered cases to consult:
O=C(O)CCCc1ccccc1CC1C2CCC(O2)C1/C=N/NC(=O)Nc1ccccc1 (stereo not given) ... 72
O=C(O)CCc1ccccc1CC1C2CCC(O2)C1/C=N/NC(=O)Nc1ccccc1 (stereo not given) ... 12
O=C(O)Cc1cccc(CCC2C3CCC(O3)C2/C=N/NC(=O)Nc2ccccc2)c1 (stereo not given) ... 133000
O=C(O)CCC/C=C\CC1C2CCC(O2)C1/C=N/NC(=O)Nc1ccccc1 (stereo not given) ... 710

Problem: Dear colleague, please send me the reported IC50 for O=C(O)COc1ccccc1CC1C2CCC(O2)C1/C=N/NC(=O)Nc1ccccc1 (stereo not given) when you can.
Result: 46
